MEASURED TARGET: human CYP2C9 (Homo sapiens)
Sequence (P11712 whole entry): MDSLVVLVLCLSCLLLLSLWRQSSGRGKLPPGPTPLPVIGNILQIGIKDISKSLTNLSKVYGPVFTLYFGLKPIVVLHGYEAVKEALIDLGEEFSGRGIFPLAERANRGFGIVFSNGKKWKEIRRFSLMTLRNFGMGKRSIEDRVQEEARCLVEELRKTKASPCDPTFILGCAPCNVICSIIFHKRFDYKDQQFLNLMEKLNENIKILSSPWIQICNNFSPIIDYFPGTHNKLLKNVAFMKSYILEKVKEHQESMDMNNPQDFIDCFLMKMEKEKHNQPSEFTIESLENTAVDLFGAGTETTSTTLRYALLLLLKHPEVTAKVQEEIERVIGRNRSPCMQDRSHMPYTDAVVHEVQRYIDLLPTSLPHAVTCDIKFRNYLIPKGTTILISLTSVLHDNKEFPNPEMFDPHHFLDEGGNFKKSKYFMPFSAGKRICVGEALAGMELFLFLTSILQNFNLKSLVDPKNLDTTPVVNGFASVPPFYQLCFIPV
MEASUREMENT NOTES: biochemical
SETUP CONDITIONS: CYP2C9 IC50
Counter-ions that a name gives are not always drawn.
Please provide measured IC50 for the entries that follow.
Answers are plain numbers, in µM.

Report IC50 for every entry below.
1. CCCC(C(=O)OCCN(CC)CC)(c1ccccc1)c1ccccc1 [Proadifen hydrochloride]
2. N#Cc1c2ccccc2cc2ccccc12 [9-Cyanoanthracene]
3. CC[n+]1c(-c2ccccc2)c2cc(N)ccc2c2ccc(N)cc21 [Ethidium bromide]
4. CCCN1C[C@H](CSC)C[C@@H]2c3cccc4[nH]cc(c34)C[C@H]21 [Pergolide methanesulfonate]
5. O=c1[nH]c2ccccc2n1CCCN1CCN(C(c2ccccc2)c2ccccc2)CC1 [Oxatomide]
6. C[C@@H](O[C@H]1OCCN(Cc2n[nH]c(=O)[nH]2)[C@H]1c1ccc(F)cc1)c1cc(C(F)(F)F)cc(C(F)(F)F)c1 [Aprepitant]
7. CCCCN(CCCC)CC(O)c1cc(Cl)cc2c1-c1ccc(Cl)cc1/C2=C/c1ccc(Cl)cc1 (centres unmarked) [Lumefantrine]

1: 12.1; 2: 6.16; 3: 47.7; 4: 6.26; 5: 25.3; 6: 13.8; 7: 16.2

I have this compound here, c1ccc2c(c1)cc1ccc3cccc4ccc2c1c34 [Benzo(a)pyrene] , and I need its recorded IC50.
23.4

----------
Data export: CYP3A4 Efficacy (in parenthesis) values recorded with CYP3A4 (Homo sapiens, UniProt P08684).
Sequence (P08684 whole entry): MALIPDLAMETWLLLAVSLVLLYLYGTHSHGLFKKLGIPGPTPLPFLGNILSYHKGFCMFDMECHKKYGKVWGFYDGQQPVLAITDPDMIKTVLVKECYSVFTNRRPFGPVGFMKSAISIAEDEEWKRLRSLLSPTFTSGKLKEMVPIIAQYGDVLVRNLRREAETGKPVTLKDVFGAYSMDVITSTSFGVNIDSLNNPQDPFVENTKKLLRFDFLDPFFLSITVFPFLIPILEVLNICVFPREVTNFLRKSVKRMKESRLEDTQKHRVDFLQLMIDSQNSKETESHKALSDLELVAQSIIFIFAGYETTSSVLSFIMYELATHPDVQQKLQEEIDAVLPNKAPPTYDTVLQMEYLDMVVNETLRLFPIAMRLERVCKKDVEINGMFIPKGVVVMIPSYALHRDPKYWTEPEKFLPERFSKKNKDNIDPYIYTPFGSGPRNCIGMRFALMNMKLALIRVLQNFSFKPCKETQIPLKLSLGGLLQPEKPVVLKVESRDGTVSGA

Report CYP3A4 Efficacy (in parenthesis) for every entry below.
1. CC(C)(C)c1cc(CCC(=O)NN)cc(C(C)(C)C)c1O
2. CC(=O)[O-].CC(=O)[O-].[Hg+2] [Mercury(II) acetate]
3. CC(C)(C)C(O)(CCc1ccc(Cl)cc1)Cn1cncn1 (stereo not drawn)
4. O=C1CCCc2c1cc1ccc3cccc4ccc2c1c34 [9,10-Dihydrobenzo[a]pyren-7(8H)-one]
5. Cl.Clc1ccc(Cn2c(CN3CCCC3)nc3ccccc32)cc1 [Clemizole hydrochloride]
6. COP(=S)(Oc1cc(Cl)c(Br)cc1Cl)c1ccccc1 (stereo not drawn)
7. O=C1C(Cl)C(CCl)CN1c1cccc(C(F)(F)F)c1 (stereo not drawn)

["0.14 ± 0.02 (-94 ± 4) %", "2.86 ± 0.53 (-93 ± 1) %", "0.21 ± 0.04 (-90 ± 1) %", "9.09 ± 1.05 (-72 ± 4) %", "6.24 ± 1.17 (-72 ± 1) %", "7.39 ± 0.5 (-65 ± 15) %", "6.98 ± 2.77 (42 ± 7) %"]

Report CYP3A4 Efficacy (in parenthesis) for every entry below.
1. CC(=O)O.CC(C)c1ccc2c(c1)CC[C@H]1[C@](C)(CN)CCC[C@]21C [Dehydroabietylamine acetate]
2. COP(=S)(NC(C)C)Oc1ccc(C)cc1[N+](=O)[O-] (stereo not drawn)

1: 0.41 ± 0.13 (-82 ± 3) %; 2: 0.55 ± 0.08 (-87 ± 1) %

----------
MEASURED TARGET: human CYP2C9 (Homo sapiens)
MEASUREMENT NOTES: biochemical
SETUP CONDITIONS: CYP2C9 AC50 (half-maximal activity concentration)
API: label(entry) gives true (1) if the entry's AC50 is strictly smaller than 20 µM; on equality or larger values it gives false (0).

Solved entries:
AC50 under 20 µM? Item: O=C(/C=C/c1ccccc1)OCc1ccccc1 [Benzyl cinnamate]
true (1)

AC50 under 20 µM? Item: BrC(Br)C(Br)(Br)Br
false (0)

AC50 under 20 µM? Item: O=C(OCCOCCOC(=O)c1ccccc1)c1ccccc1 [Diethylene glycol dibenzoate]
true (1)

AC50 under 20 µM? Item: CN(C)C(=O)C(c1ccccc1)c1ccccc1
false (0)

AC50 under 20 µM? Item: CCOC(=O)[C@@H](C)Oc1ccc(Oc2nc3ccc(Cl)cc3o2)cc1
false (0)

AC50 under 20 µM? Item: CCNc1nc(NC(C)C)nc(SC)n1
false (0)

AC50 under 20 µM? Item: O=C(O)c1nn(Cc2ccc(Cl)cc2Cl)c2ccccc12
false (0)

AC50 under 20 µM? Item: CC1(C)[C@H](C(=O)O[C@H](C#N)c2cccc(Oc3ccccc3)c2)[C@@H]1C=C(Br)Br
true (1)

Further cases:
AC50 under 20 µM? Item: CCOCN(C(=O)CCl)c1c(C)cccc1CC
false (0)

AC50 under 20 µM? Item: CCCOC(=O)Cc1ccc(OCC(=O)N(CC)CC)c(OC)c1
false (0)

AC50 under 20 µM? Item: O=C(CCCN1CCN(c2ccccn2)CC1)c1ccc(F)cc1
true (1)

AC50 under 20 µM? Item: COC(=O)c1ccc(O)cc1
true (1)

AC50 under 20 µM? Item: O=P(Oc1ccccc1)(Oc1ccccc1)Oc1ccccc1 [Triphenyl phosphate]
true (1)

AC50 under 20 µM? Item: Oc1c(Cl)cc(Cl)c(Cl)c1Cl
false (0)

----------
Please provide measured CYP2D6 Efficacy (in parenthesis) for the entries that follow.
MEASURED TARGET: human CYP2D6 (Homo sapiens)
Sequence (P10635 whole entry): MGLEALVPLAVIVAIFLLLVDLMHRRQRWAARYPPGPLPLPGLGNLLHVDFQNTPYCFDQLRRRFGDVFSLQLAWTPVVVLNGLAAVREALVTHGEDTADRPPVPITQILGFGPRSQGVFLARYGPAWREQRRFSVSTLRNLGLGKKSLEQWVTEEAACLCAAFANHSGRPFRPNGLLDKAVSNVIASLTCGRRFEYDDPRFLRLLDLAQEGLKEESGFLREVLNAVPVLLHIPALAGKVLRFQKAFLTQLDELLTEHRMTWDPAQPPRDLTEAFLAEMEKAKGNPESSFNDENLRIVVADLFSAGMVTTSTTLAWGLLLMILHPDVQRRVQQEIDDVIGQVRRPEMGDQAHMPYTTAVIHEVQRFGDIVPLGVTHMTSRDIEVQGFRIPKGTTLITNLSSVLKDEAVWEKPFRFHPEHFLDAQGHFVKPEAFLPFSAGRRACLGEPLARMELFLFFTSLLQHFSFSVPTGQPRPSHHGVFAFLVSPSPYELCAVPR
SETUP CONDITIONS: human
Structures can show the parent of a compound that is named as a salt.

Reference set, count: 5
I have this compound here, c1ccc(-c2ccc(C(c3ccccc3)n3ccnc3)cc2)cc1 (stereo not shown) [Bifonazole] , and I need its recorded CYP2D6 Efficacy (in parenthesis).
1.82 ± 0.33 (-107 ± 6) %

I have this compound here, Fc1ccc(Oc2ccnc3cc(Cl)cc(Cl)c23)cc1 [Quinoxyfen] , and I need its recorded CYP2D6 Efficacy (in parenthesis).
37.02 ± 2.51 (-71 ± 14) %

I have this compound here, C=CCOC(=O)C(C)(C)OC(=O)c1cc(-n2c(=O)cc(C(F)(F)F)n(C)c2=O)ccc1Cl [Butafenacil] , and I need its recorded CYP2D6 Efficacy (in parenthesis).
26.96 ± 4.59 (-70 ± 7) %

I have this compound here, CCCCN1CCCC[C@H]1C(=O)Nc1c(C)cccc1C [Levobupivacaine hydrochloride] , and I need its recorded CYP2D6 Efficacy (in parenthesis).
0.57 ± 0.04 (-109 ± 3) %

I have this compound here, Clc1ccc(C2(Cn3cncn3)OCCO2)c(Cl)c1 [Azaconazole] , and I need its recorded CYP2D6 Efficacy (in parenthesis).
65.83 ± 4.46 (-77 ± 14) %

Report CYP2D6 Efficacy (in parenthesis) for every entry below.
1. Clc1ccc(CCC(Cn2ccnc2)Sc2c(Cl)cccc2Cl)cc1 (stereo not shown) [Butoconazole nitrate]
2. Clc1ccc(C(Cn2ccnc2)OCc2ccc(Sc3ccccc3)cc2)c(Cl)c1 (stereo not shown) [Fenticonazole nitrate]

1: 2.37 ± 0.15 (-100 ± 5) %; 2: 0.37 ± 0.02 (-82 ± 4) %

Report CYP2D6 Efficacy (in parenthesis) for every entry below.
1. C=CC(=O)OCC(CO)(COC(=O)C=C)COC(=O)C=C [Pentaerythritol triacrylate]
2. O=C1N(c2ccccc2)c2ccccc2C1(Cc1ccncc1)Cc1ccncc1 [Linopirdine]
3. COP(=S)(OC)Oc1ccc(S(=O)(=O)N(C)C)cc1 [Famphur]
4. O=S(=O)(c1ccc(Cl)cc1)c1ccc(Cl)cc1 [4,4'-Dichlorodiphenyl sulfone]
5. Clc1ccc(Nc2nnc(Cc3ccncc3)c3ccccc23)cc1 [Vatalanib]
6. COC(=O)N(OC)c1ccccc1COc1ccn(-c2ccc(Cl)cc2)n1 [Pyraclostrobin]
7. FC(F)C(F)(F)OCC(Cn1cncn1)c1ccc(Cl)cc1Cl (stereo not shown) [Tetraconazole]

63.77 ± 20.97 (-79 ± 21) %
20.69 ± 9.02 (-61 ± 27) %
35.57 ± 0 (-59 ± 2) %
40.58 ± 4.66 (-51 ± 10) %
5.98 ± 9.87 (-107 ± 3) %
32.63 ± 15.32 (-79 ± 28) %
12.32 ± 3.08 (-113 ± 2) %

Report CYP2D6 Efficacy (in parenthesis) for every entry below.
1. N#Cc1c(Cl)c(Cl)c(Cl)c(C#N)c1Cl [Chlorothalonil]
2. CC1(C)CCC(=Cc2ccc(Cl)cc2)C1(O)Cn1cncn1 (stereo not shown) [Triticonazole]
3. CCOP(=S)(OCC)SCn1c(=O)oc2cc(Cl)ccc21 [Phosalone]
4. Clc1ccccc1-c1nc(-c2ccncc2)no1 [Pifexole]
5. CC(C)=CCOc1c2occc2cc2ccc(=O)oc12 [Imperatorin]

1. 34.91 ± 0 (-58 ± 3) %
2. 9.5 ± 2.8 (-97 ± 3) %
3. 15.88 ± 2.02 (-103 ± 4) %
4. 20.06 ± 9.42 (-76 ± 17) %
5. 4.72 ± 0.31 (-110 ± 6) %

----------
Please provide measured IC50 for the entries that follow.
MEASURED TARGET: human CYP2C19 (Homo sapiens)
Sequence (P33261 whole entry): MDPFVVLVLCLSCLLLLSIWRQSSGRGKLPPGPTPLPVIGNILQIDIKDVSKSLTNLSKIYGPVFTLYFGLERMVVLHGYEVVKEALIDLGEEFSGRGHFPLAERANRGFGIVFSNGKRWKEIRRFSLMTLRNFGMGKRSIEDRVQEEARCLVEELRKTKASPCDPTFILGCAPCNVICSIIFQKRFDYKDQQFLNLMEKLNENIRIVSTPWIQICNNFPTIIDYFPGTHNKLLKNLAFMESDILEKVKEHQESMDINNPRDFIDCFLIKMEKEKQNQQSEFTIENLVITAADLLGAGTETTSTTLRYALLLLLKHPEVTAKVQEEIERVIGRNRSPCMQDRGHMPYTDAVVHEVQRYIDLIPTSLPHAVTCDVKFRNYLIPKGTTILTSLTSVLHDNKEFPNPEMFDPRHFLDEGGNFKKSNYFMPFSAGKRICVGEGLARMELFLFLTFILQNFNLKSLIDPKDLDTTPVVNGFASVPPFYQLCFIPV
MEASUREMENT NOTES: biochemical
Where a name gives a salt, the structure may show the parent alone.
One number for each entry, in µM.

Reference set, count: 2
I have this compound here, CCC(=O)O[C@H]1[C@H](O[C@@H]2[C@@H](C)[C@H](O[C@H]3C[C@@](C)(OC)[C@@H](O)[C@H](C)O3)[C@@H](C)C(=O)O[C@H](CC)[C@@](C)(O)[C@H](O)[C@@H](C)C(=O)[C@H](C)C[C@@]2(C)O)O[C@H](C)C[C@@H]1N(C)C [Erythromycin estolate] , and I need its recorded IC50.
47.1

I have this compound here, Clc1ccc(C(Cn2ccnc2)OCc2ccc(Sc3ccccc3)cc2)c(Cl)c1 (stereo not drawn) [Fenticonazole nitrate] , and I need its recorded IC50.
2.65

Further cases:
I have this compound here, COCC(=O)O[C@]1(CCN(C)CCCc2nc3ccccc3[nH]2)CCc2cc(F)ccc2[C@@H]1C(C)C [Mibefradil dihydrochloride] , and I need its recorded IC50.
38.9
